# assay_name: log P by HPLC on reversed-phase columns (OECD Guideline 117), [a] acidic pH 2.7, [b] neutral pH 7.8
# Format: physicochemical
# protocol_conditions: reversed-phase (C18) HPLC column, neutral pH 7.8, read-out: logP[b]
# Experimental: The log P values were determined in accordance with OECD Guideline 117 (EC Directive 92/69/EEC) by HPLC (high-performance liquid chromatography) using reversed-phase (RP) columns (C18), by the following methods: [a] […] Calibration is carried out using unbranched alkan-2-ones (having 3 to 16 carbon atoms) with known log P values (log P values determined on the basis of the retention times by linear interpolation between two successive alkanones).
property_label: chromatographic logP
Enter a number only.

Q: Reported chromatographic logP for CS(=O)(=O)CCNC(=O)c1ccc2nn(-c3cccnc3)cc2c1 : what is it?
Ans: 0.95

Q: Reported chromatographic logP for Cc1cc(F)c(NC(=O)c2ccc3nn(-c4cccnc4)cc3c2)cc1SCC(F)(F)F : what is it?
Ans: 3.12

Q: Reported chromatographic logP for c1ccc(-c2ccc3nn(-c4cccnc4)cc3c2)nc1 : what is it?
Ans: 1.93

Q: Reported chromatographic logP for Cc1ccc(NC(=O)c2ccc3nn(-c4cccnc4)cc3c2)cc1SCC(F)(F)F : what is it?
Ans: 3.15

Q: Reported chromatographic logP for Clc1ccc(-c2ccc3nn(-c4cccnc4)cc3c2)nc1 : what is it?
Ans: 2.78

Q: Reported chromatographic logP for CCSc1ccc(-c2ccc3nn(-c4cccnc4)cc3c2)nc1 : what is it?
Ans: 3.03

Q: Reported chromatographic logP for FC(F)(F)Cn1cc(-c2ccc3nn(-c4cccnc4)cc3c2)cn1 : what is it?
Ans: 2.12

Q: Reported chromatographic logP for Cc1cc(F)c(NC(=O)c2ccc3nn(-c4cccnc4)cc3c2)cc1[S+]([O-])CC(F)(F)F (centres unmarked) : what is it?
Ans: 2.14

---

Exercise: for every item that follows, state its recorded pest or weed control at 500 g/ha.
# Tested on: green peach aphid (Myzus persicae)
# assay_name: Myzus persicae spray test (Chinese cabbage leaf discs)
# Format: in vivo
# protocol_conditions: foliar, 144 h, read-out: efficacy in %
# output: bare number, implied unit %

Q: Reported pest or weed control at 500 g/ha for Clc1cccc(-c2ccc3nn(-c4cccnc4)cc3c2)n1 : what is it?
Ans: 100

Q: Reported pest or weed control at 500 g/ha for CN(CC(F)(F)F)C(=O)c1ccc2nn(-c3cccnc3)cc2c1 : what is it?
Ans: 90

Q: Reported pest or weed control at 500 g/ha for CC(C[S+](C)[O-])C(=O)N(C)c1ccc2nn(-c3cncc(F)c3)cc2c1 (stereo not drawn) : what is it?
Ans: 100

Q: Reported pest or weed control at 500 g/ha for Cn1cc(-n2cc3cc(C(=O)NCC(F)(F)F)ccc3n2)cn1 : what is it?
Ans: 90

Q: Reported pest or weed control at 500 g/ha for Cc1ccc(C(=O)N(C)c2ccc3nn(-c4cnn(C)c4)cc3c2)cc1[S+]([O-])CC(F)(F)F (stereo not drawn) : what is it?
Ans: 90

Q: Reported pest or weed control at 500 g/ha for CN(C(=O)CC(C)(F)F)c1ccc2nn(-c3cncc(F)c3)cc2c1 : what is it?
Ans: 90

Q: Reported pest or weed control at 500 g/ha for Cc1ccc(-c2ccc3nn(-c4cccnc4)cc3c2)nc1 : what is it?
Ans: 90

Q: Reported pest or weed control at 500 g/ha for Clc1ccc(-c2ccc3nn(-c4cccnc4)cc3c2)nc1 : what is it?
Ans: 100

Q: Reported pest or weed control at 500 g/ha for c1cnc(-c2ccc3nn(-c4cccnc4)cc3c2)nc1 : what is it?
Ans: 90

---

# assay_name: log P by HPLC on reversed-phase columns (OECD Guideline 117), [a] acidic pH 2.7, [b] neutral pH 7.8
# Type: physicochemical
# protocol_conditions: reversed-phase (C18) HPLC column, acidic pH 2.7, read-out: logP[a]
property_label: chromatographic logP
Enter a number only.

Q: Reported chromatographic logP for c1cncc(-n2cc3cc(-c4cn[nH]c4)ccc3n2)c1 [Example 98] : what is it?
Ans: 1.27

Q: Reported chromatographic logP for Cc1cc(F)c(NC(=O)c2ccc3nn(-c4cccnc4)cc3c2)cc1SCC(F)(F)F [Example 91] : what is it?
Ans: 3.22

Q: Reported chromatographic logP for CN(C(=O)c1ccc2nn(-c3cccnc3)cc2c1)C1CC1 [Example 75] : what is it?
Ans: 1.47

Q: Reported chromatographic logP for CCSc1cccc(-c2ccc3nn(-c4cccnc4)cc3c2)n1 [Example 79] : what is it?
Ans: 3.57

Q: Reported chromatographic logP for O=C(c1ccc2nn(-c3cccnc3)cc2c1)N1CCCC1 [Example 88] : what is it?
Ans: 1.43

Q: Reported chromatographic logP for CSCn1ccc(-c2ccc3nn(-c4cccnc4)cc3c2)n1 [Example 62] : what is it?
Ans: 1.97

Q: Reported chromatographic logP for CSCCNC(=O)c1ccc2nn(-c3cccnc3)cc2c1 [Example 85] : what is it?
Ans: 1.45

Q: Reported chromatographic logP for Cc1ccc(-c2ccc3nn(-c4cccnc4)cc3c2)cc1SCC(F)(F)F [Example 50] : what is it?
Ans: 4.12

Q: Reported chromatographic logP for CN(CC(F)F)C(=O)c1ccc2nn(-c3cccnc3)cc2c1 [Example 86] : what is it?
Ans: 1.55

---

# assay_name: log P by HPLC on reversed-phase columns (OECD Guideline 117), [a] acidic pH 2.7, [b] neutral pH 7.8
# Type: physicochemical
# protocol_conditions: reversed-phase (C18) HPLC column, neutral pH 7.8, read-out: logP[b]
property_label: chromatographic logP
Enter a number only.

Q: Reported chromatographic logP for Cc1cc(F)c(-c2ccc3nn(-c4cccnc4)cc3c2)cc1[S+]([O-])CC(F)(F)F (stereo not drawn) : what is it?
Ans: 2.74

Q: Reported chromatographic logP for O=C(c1ccc2nn(-c3cccnc3)cc2c1)N1CCS(=O)(=O)CC1 : what is it?
Ans: 1.03

Q: Reported chromatographic logP for c1cncc(-n2cc3cc(-c4cn[nH]c4)ccc3n2)c1 : what is it?
Ans: 1.3

Q: Reported chromatographic logP for Cc1ccc(-c2ccc3nn(-c4cccnc4)cc3c2)cc1[S+]([O-])CC(F)(F)F (stereo not drawn) : what is it?
Ans: 2.68

Q: Reported chromatographic logP for Clc1cccc(-c2ccc3nn(-c4cccnc4)cc3c2)n1 : what is it?
Ans: 2.8

Q: Reported chromatographic logP for CN(CC(F)(F)F)C(=O)c1ccc2nn(-c3cccnc3)cc2c1 : what is it?
Ans: 1.87

Q: Reported chromatographic logP for Fc1ccnc(-c2ccc3nn(-c4cccnc4)cc3c2)c1 : what is it?
Ans: 2.21

Q: Reported chromatographic logP for Cc1ccc(-c2ccc3nn(-c4cccnc4)cc3c2)nc1 : what is it?
Ans: 2.25

Q: Reported chromatographic logP for Cn1cc(-c2ccc3nn(-c4cccnc4)cc3c2)cn1 : what is it?
Ans: 1.57

---

# assay_name: log P by HPLC on reversed-phase columns (OECD Guideline 117), [a] acidic pH 2.7, [b] neutral pH 7.8
# Format: physicochemical
# protocol_conditions: reversed-phase (C18) HPLC column, acidic pH 2.7, read-out: logP[a]
Exercise: for every item that follows, state its recorded chromatographic logP.
Enter a number only.

Q: Reported chromatographic logP for O=C(c1ccc2nn(-c3cccnc3)cc2c1)N1CCOCC1 : what is it?
Ans: 1.14

Q: Reported chromatographic logP for Cn1ccc(-c2ccc3nn(-c4cccnc4)cc3c2)n1 : what is it?
Ans: 1.58

Q: Reported chromatographic logP for Cc1cc(C)c([S+]([O-])CC(F)(F)F)cc1-c1ccc2nn(-c3cccnc3)cc2c1 (centres unmarked) : what is it?
Ans: 2.99

Q: Reported chromatographic logP for CCN(CC)C(=O)c1ccc2nn(-c3cccnc3)cc2c1 : what is it?
Ans: 1.63

Q: Reported chromatographic logP for Cc1cc(F)c(NC(=O)c2ccc3nn(-c4cccnc4)cc3c2)cc1[S+]([O-])CC(F)(F)F (centres unmarked) : what is it?
Ans: 2.19

Q: Reported chromatographic logP for c1ccc(-c2ccc3nn(-c4cccnc4)cc3c2)nc1 : what is it?
Ans: 1.13

Q: Reported chromatographic logP for Cc1cc(F)c(-c2ccc3nn(-c4cccnc4)cc3c2)cc1[S+]([O-])CC(F)(F)F (centres unmarked) : what is it?
Ans: 2.8

Q: Reported chromatographic logP for O=C(c1ccc2nn(-c3cccnc3)cc2c1)N1CCSCC1 : what is it?
Ans: 1.5

Q: Reported chromatographic logP for Clc1cccc(-c2ccc3nn(-c4cccnc4)cc3c2)n1 : what is it?
Ans: 2.79

Q: Reported chromatographic logP for FC(F)(F)c1cnn(-c2ccc3nn(-c4cccnc4)cc3c2)c1 : what is it?
Ans: 2.77

Q: Reported chromatographic logP for Clc1ccnc(-c2ccc3nn(-c4cccnc4)cc3c2)c1 : what is it?
Ans: 2.62
